Experiment: Plasma pharmacokinetic study after single oral administration to fasted and fed cats
Format: in vivo, cat
Settings: female, European Shorthaired, plasma, po, 3 mg/kg, oral to fasted cats, 3.0 mg molidustat sodium per kg, geometric mean
REPORTED METRIC: Cmax

{"COMPOUND": "O=c1c(-n2ccnn2)c[nH]n1-c1cc(N2CCOCC2)ncn1 [molidustat]", "ENDPOINT RESULT": "3130 ng/mL"}

====

Assay: Plasma pharmacokinetic study after single oral administration to fasted and fed cats
Assay type: in vivo, cat
Conditions: female, European Shorthaired, plasma, po, 3 mg/kg, oral to fed cats, 3.0 mg molidustat sodium per kg, median

{"ENTRY SMILES": "O=c1c(-n2ccnn2)c[nH]n1-c1cc(N2CCOCC2)ncn1", "Tmax [h]": 1}

====

Experiment: Plasma pharmacokinetics, oral bioavailability and dose proportionality after single oral dose
Format: in vivo, cat
Details: both sexes, 5.0 mg/kg single oral dose, geometric mean (CV)
Method: The test item was applied as single oral dose at the expected target dose rate of 5 mg molidustat sodium per kg bw, at 2.5 mg/kg and at 10 mg/kg to healthy adult cats. […] The dose rates administered were at means of 2.42 mg/kg, 4.79, and 9.54 mg molidustat sodium per kg for the 0.5×, 1×, 2× dose groups, respectively. […] Dose rate calculations were based on the body weights determined prior to each study period. […]
REPORTED METRIC: Cmax

{"COMPOUND": "O=c1c(-n2ccnn2)c[nH]n1-c1cc(N2CCOCC2)ncn1 [molidustat]", "ENDPOINT RESULT": "3830 ng/mL"}

====

Assay: Plasma pharmacokinetics, oral bioavailability and dose proportionality after single oral dose
Assay type: in vivo, cat
Details: both sexes, 5.0 mg/kg single oral dose, geometric mean (CV)
Description: The test item was applied as single oral dose at the expected target dose rate of 5 mg molidustat sodium per kg bw, at 2.5 mg/kg and at 10 mg/kg to healthy adult cats. […] The dose rates administered were at means of 2.42 mg/kg, 4.79, and 9.54 mg molidustat sodium per kg for the 0.5×, 1×, 2× dose groups, respectively. […] Dose rate calculations were based on the body weights determined prior to each study period. […]

{"ENTRY SMILES": "O=c1c(-n2ccnn2)c[nH]n1-c1cc(N2CCOCC2)ncn1", "MEASURE UNIT": "h", "Tmax": 1}

====

Assay: Plasma pharmacokinetics, oral bioavailability and dose proportionality after single oral dose
Assay type: in vivo, cat
Conditions: both sexes, 10 mg/kg single oral dose, geometric mean (CV)
REPORTED METRIC: half-life (h)

{"ENTRY SMILES": "O=c1c(-n2ccnn2)c[nH]n1-c1cc(N2CCOCC2)ncn1", "MEASURE UNIT": "h", "ENDPOINT RESULT": 7.1}

====

Assay: Plasma pharmacokinetics, oral bioavailability and dose proportionality after single oral dose
Assay type: in vivo, cat
Settings: both sexes, 2.5 mg/kg single oral dose, geometric mean (CV)

{"ENTRY SMILES": "O=c1c(-n2ccnn2)c[nH]n1-c1cc(N2CCOCC2)ncn1", "Tmax, min": 30}

====

Test: Plasma pharmacokinetics after repeated once daily oral dosing of 2.5% (m/v) oily suspension
Format: in vivo, cat
Details: both sexes, plasma, po, 4.8 mg/kg, first dose, 4.8 mg molidustat sodium per kg once daily oral, geometric mean (CV)
REPORTED METRIC: Tmax (min)

{"COMPOUND": "O=c1c(-n2ccnn2)c[nH]n1-c1cc(N2CCOCC2)ncn1 [molidustat]", "REPORTED METRIC": "Tmax", "ENDPOINT RESULT": 38.4}
